Form field: pIC50 (one value per entry).
TARGET_OF_ASSAY: E. coli GroEL/ES (Escherichia coli)
PROCEDURE_DETAILS: Inhibition of Escherichia coli GroEL/GroES using Escherichia coli GroEL expressed in Escherichia coli DH5alpha cells and Escherichia coli GroES expressed in Escherichia coli BL21(DE3) cells assessed as inhibition of denatured rhodanese refolding by measuring reduction in thiocyanate production incubated for 60 mins by micro plate reader analysis
pIC50: −log10 of the molar value.

# COMPOUND, pIC50
data = [
    ("O=C(/C=C/c1ccc([N+](=O)[O-])cc1)c1ccc(O)c(O)c1", 6.08),
    ("CNC(=O)Oc1c(Br)cc2sc(=O)oc2c1Br", 6.05),
    ("O=c1c([N+](=O)[O-])c(Cl)c2ccccc2n1Cc1ccccc1", 4.66),
    ("COC(=O)c1ccc(-c2ccc(/C=C3/SC(=S)NC3=O)o2)cc1", 5.52),
    ("O=C(Nc1ccc(Sc2nc3ccccc3s2)c(Cl)c1)c1cc(Br)cc(Br)c1O", 5.85),
    ("Cn1c(=O)c(C(=O)Nc2ccncc2)c(O)c2ccccc21", 5.17),
    ("O=C(/C=C/c1ccco1)c1ccc(NC(=O)c2cccs2)cc1", 5.64),
    ("O=C1/C(=C/c2ccc(O)c(O)c2)SC(=S)N1c1ccc(O)cc1", 6.24),
    ("Nc1nnc(SCC(=O)c2ccc(-c3ccccc3)cc2)s1", 4.10),
    ("CNC(=O)Nc1ccc2nc(-c3ccco3)c(-c3ccco3)nc2c1", 5.60),
    ("O=C(Nc1cc([N+](=O)[O-])ccc1O)c1ccc2c(c1)C(=O)N(Cc1ccccc1)C2=O", 4.55),
    ("O=C(/C=C/c1cccc([N+](=O)[O-])c1)c1ccc(NC(=O)c2ccco2)cc1", 5.85),
    ("O=C(Nc1ccc2nc(-c3ccco3)c(-c3ccco3)nc2c1)N1CCCC1", 5.62),
    ("O=C(CC1Nc2cccc3cccc(c23)NC1=O)Nc1cccc([N+](=O)[O-])c1 (stereo not given)", 4.96),
    ("COc1ccc(C(=O)N/N=C/c2ccc(O)c3ncccc23)cc1", 4.74),
    ("Nc1ccc(Nc2nc(-c3ccc(O)c(O)c3)cs2)cc1", 5.77),
    ("O=C(NCCO)Nc1ccc2nc(-c3ccco3)c(-c3ccco3)nc2c1", 5.59),
    ("COc1cc(/C=C2/C(=N)N3N=C(CC(C)C)SC3=NC2=O)ccc1OC(=O)c1ccc(F)cc1", 4.60),
    ("Cc1ccc(S(=O)(=O)Nc2ccc(-c3nc4ccc(NS(=O)(=O)c5ccc(C)cc5)cc4[nH]3)cc2)cc1", 4.52),
    ("COc1cccc(/C=C2/SC(=S)N(CCC(=O)Nc3ccc(O)cc3)C2=O)c1", 5.02),
]

---

PROCEDURE_DETAILS: Therapeutic index, ratio of EC50 for human THLE3 cells to EC50 for Staphylococcus aureus subsp. aureus Seattle 1945 (ATCC 25923)
Type: cell-based
CONDITIONS: read-out: Ratio EC50

# MOLECULAR_STRING, REPORTED_RELATION, selectivity ratio
rows = [
    ("O=C(Nc1ccc(Sc2nc3ccccc3s2)c(Cl)c1)c1cc(Br)cc(Br)c1O", "=", 60),
    ("Cn1c(=O)c(C(=O)Nc2ccncc2)c(O)c2ccccc21", ">", 55),
]

---

Listed below: pIC50 values for each entry.
TARGET_OF_ASSAY: E. coli GroEL/ES (Escherichia coli, UniProt P0A6F5)
Sequence (P0A6F5 whole entry, looked up): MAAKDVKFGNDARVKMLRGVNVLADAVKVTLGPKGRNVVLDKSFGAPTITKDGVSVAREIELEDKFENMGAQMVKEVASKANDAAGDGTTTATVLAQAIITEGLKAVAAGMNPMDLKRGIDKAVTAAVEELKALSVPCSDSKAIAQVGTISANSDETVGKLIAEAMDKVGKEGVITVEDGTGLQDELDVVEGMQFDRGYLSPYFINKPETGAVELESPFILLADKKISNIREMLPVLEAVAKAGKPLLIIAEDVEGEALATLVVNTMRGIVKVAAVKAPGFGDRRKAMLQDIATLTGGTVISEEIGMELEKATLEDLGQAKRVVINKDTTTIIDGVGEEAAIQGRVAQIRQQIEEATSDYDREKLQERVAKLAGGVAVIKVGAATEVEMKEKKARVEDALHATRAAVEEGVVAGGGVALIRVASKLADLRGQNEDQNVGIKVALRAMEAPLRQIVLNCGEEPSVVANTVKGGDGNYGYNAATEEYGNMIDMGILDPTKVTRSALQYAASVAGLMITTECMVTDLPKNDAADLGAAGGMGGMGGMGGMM
PROCEDURE_DETAILS: Inhibition of Escherichia coli GroEL/GroES using Escherichia coli GroEL expressed in Escherichia coli DH5alpha cells and Escherichia coli GroES expressed in Escherichia coli BL21(DE3) cells assessed as inhibition of denatured pig heart MDH refolding by measuring reduction in NADH production incubated for 60 mins by micro plate reader analysis
pIC50: −log10 of the molar value.
ASSAY_METRIC: pIC50

# COMPOUND, NUMERIC_READOUT
records = [
    ("Nc1ccc(Nc2nc(-c3ccc(O)c(O)c3)cs2)cc1", 5.57),
    ("O=c1c([N+](=O)[O-])c(Cl)c2ccccc2n1Cc1ccccc1", 5.27),
    ("COc1cccc(/C=C2/SC(=S)N(CCC(=O)Nc3ccc(O)cc3)C2=O)c1", 5.33),
    ("O=C1/C(=C/c2ccc(O)c(O)c2)SC(=S)N1c1ccc(O)cc1", 6.16),
    ("O=C(/C=C/c1ccco1)c1ccc(NC(=O)c2cccs2)cc1", 5.44),
    ("O=C(Nc1cc([N+](=O)[O-])ccc1O)c1ccc2c(c1)C(=O)N(Cc1ccccc1)C2=O", 4.62),
    ("COC(=O)c1ccc(-c2ccc(/C=C3/SC(=S)NC3=O)o2)cc1", 5.32),
    ("COc1ccc(C(=O)N/N=C/c2ccc(O)c3ncccc23)cc1", 4.51),
    ("COc1cc(/C=C2/C(=N)N3N=C(CC(C)C)SC3=NC2=O)ccc1OC(=O)c1ccc(F)cc1", 4.62),
    ("O=C(/C=C/c1cccc([N+](=O)[O-])c1)c1ccc(NC(=O)c2ccco2)cc1", 6.03),
    ("Cn1c(=O)c(C(=O)Nc2ccncc2)c(O)c2ccccc21", 5.24),
    ("CNC(=O)Oc1c(Br)cc2sc(=O)oc2c1Br", 5.59),
    ("Cc1ccc(S(=O)(=O)Nc2ccc(-c3nc4ccc(NS(=O)(=O)c5ccc(C)cc5)cc4[nH]3)cc2)cc1", 5.12),
    ("O=C(NCCO)Nc1ccc2nc(-c3ccco3)c(-c3ccco3)nc2c1", 5.19),
    ("O=C(CC1Nc2cccc3cccc(c23)NC1=O)Nc1cccc([N+](=O)[O-])c1 (centres undefined)", 4.38),
    ("CNC(=O)Nc1ccc2nc(-c3ccco3)c(-c3ccco3)nc2c1", 5.52),
    ("O=C(Nc1ccc2nc(-c3ccco3)c(-c3ccco3)nc2c1)N1CCCC1", 5.33),
    ("O=C(Nc1ccc(Sc2nc3ccccc3s2)c(Cl)c1)c1cc(Br)cc(Br)c1O", 5.85),
    ("O=C(/C=C/c1ccc([N+](=O)[O-])cc1)c1ccc(O)c(O)c1", 5.92),
]

---

System: Staphylococcus aureus
PROCEDURE_DETAILS: Antibacterial activity against methicillin resistant Staphylococcus aureus subsp. aureus HPV107 (ATCC BAA-44) assessed as reduction in bacterial growth incubated for 6 to 8 hrs
Format: functional, organism-based
Parameter: EC50. Scope: all listed entries.

# MOLECULAR_STRING, EC50
rows = [
    ("Cc1ccc(S(=O)(=O)Nc2ccc(-c3nc4ccc(NS(=O)(=O)c5ccc(C)cc5)cc4[nH]3)cc2)cc1", "> 100 µM"),
    ("O=C(N[C@H](CO)[C@H](O)c1ccc([N+](=O)[O-])cc1)C(Cl)Cl", "2.3 µM"),
    ("CCCCCCCCCC(=O)N[C@@H](Cc1c[nH]c2ccccc12)C(=O)N[C@@H](CC(N)=O)C(=O)N[C@@H](CC(=O)O)C(=O)N[C@@H]1C(=O)NCC(=O)N[C@@H](CCCN)C(=O)N[C@@H](CC(=O)O)C(=O)N[C@H](C)C(=O)N[C@@H](CC(=O)O)C(=O)NCC(=O)N[C@H](CO)C(=O)N[C@@H]([C@H](C)CC(=O)O)C(=O)N[C@@H](CC(=O)c2ccccc2N)C(=O)O[C@@H]1C", "5.7 µM"),
    ("O=C(/C=C/c1ccc([N+](=O)[O-])cc1)c1ccc(O)c(O)c1", "40 µM"),
    ("O=C(Nc1ccc2nc(-c3ccco3)c(-c3ccco3)nc2c1)N1CCCC1", "> 100 µM"),
    ("CC1(C)S[C@@H]2[C@H](NC(=O)[C@H](N)c3ccccc3)C(=O)N2[C@H]1C(=O)O", "76 µM"),
]

---

TARGET_OF_ASSAY: E. coli GroEL/ES (Escherichia coli, UniProt P0A6F5)
PROCEDURE_DETAILS: Inhibition of Escherichia coli GroEL/GroES using Escherichia coli GroEL expressed in Escherichia coli DH5alpha cells and Escherichia coli GroES expressed in Escherichia coli BL21(DE3) cells assessed as reduction in denatured pig heart MDH ATPase activity by malachite green dye based assay
Measured IC50, listed per entry.

# COMPOUND, REPORTED_RELATION, IC50 (µM)
records = [
    ("O=C(Nc1ccc(Sc2nc3ccccc3s2)c(Cl)c1)c1cc(Br)cc(Br)c1O", ">", 250),
    ("Nc1ccc(Nc2nc(-c3ccc(O)c(O)c3)cs2)cc1", ">", 250),
    ("O=C1/C(=C/c2ccc(O)c(O)c2)SC(=S)N1c1ccc(O)cc1", ">", 250),
    ("O=C(CC1Nc2cccc3cccc(c23)NC1=O)Nc1cccc([N+](=O)[O-])c1 (configuration not stated)", "=", 217),
    ("CNC(=O)Oc1c(Br)cc2sc(=O)oc2c1Br", ">", 250),
    ("Nc1nnc(SCC(=O)c2ccc(-c3ccccc3)cc2)s1", "=", 107),
    ("COC(=O)c1ccc(-c2ccc(/C=C3/SC(=S)NC3=O)o2)cc1", ">", 250),
    ("Cc1ccc(S(=O)(=O)Nc2ccc(-c3nc4ccc(NS(=O)(=O)c5ccc(C)cc5)cc4[nH]3)cc2)cc1", "=", 119),
    ("O=C(/C=C/c1cccc([N+](=O)[O-])c1)c1ccc(NC(=O)c2ccco2)cc1", "=", 80),
    ("O=C(/C=C/c1ccco1)c1ccc(NC(=O)c2cccs2)cc1", ">", 250),
    ("O=C(/C=C/c1ccc([N+](=O)[O-])cc1)c1ccc(O)c(O)c1", "=", 216),
    ("O=C(Nc1cc([N+](=O)[O-])ccc1O)c1ccc2c(c1)C(=O)N(Cc1ccccc1)C2=O", "=", 187),
]
